Test system: L1210 leukemia ip in BDF1 mice, survival T/C
MEASUREMENT_DESCRIPTION: NCI In Vivo Anticancer Drug Screen. Data for tumor model L1210 Leukemia (intraperitoneal) in B6D2F1 (BDF1) mice
CONDITIONS: endpoint: mean survival time; dose: 100.0 mg/kg/injection; schedule: Q04DX003 (ip); vehicle: carboxymethylcellulose (CMC); higher = longer survival
Inconclusive results and toxic doses are left out.
Please go through the items and note down their T/C.

Give T/C (L1210 leukemia ip in BDF1 mice, survival T/C) of the following compound: `N=Nc1ccc2c(O)c3ccccc3c(O)c2c1`
101 % of control

Queued: `CC(C)N(C(=O)Nc1cc(C(F)(F)F)ccc1Cl)C1CCCCC1`
96 % of control

Next entry: CCOC(=O)c1c(C)c2c(n1C)CCCC2O (stereo not given)
101 % of control

Now give it for `Cc1c(F)cccc1C(=O)O` too.
103 % of control

Another compound: `O=C(Nc1cccc(Cl)c1)Oc1ccc(Cl)cc1Cc1ccccc1`
94 % of control

====

Task for the reader: assign each of the following molecules its reported T/C.
System: L1210 leukemia ip in BDF1 mice, survival T/C
MEASUREMENT_DESCRIPTION: NCI In Vivo Anticancer Drug Screen. Data for tumor model L1210 Leukemia (intraperitoneal) in B6D2F1 (BDF1) mice
CONDITIONS: endpoint: mean survival time; dose: 100.0 mg/kg/injection; schedule: Q04DX003 (ip); vehicle: saline; higher = longer survival
Inconclusive results and toxic doses are left out.

Fill blank: measured T/C of the molecule `NC(N)=NCCCCCC(=O)O` is ____.
103 % of control

Request: `Clc1ccc2c(Cl)ncnc2c1`
97 % of control

Subsequent entry: `CCOC(=O)CC(=O)NCCc1cccc(OC)c1OC`
93 % of control

Further, for `COc1ccc(C(=O)NC[n+]2ccccc2)cc1` ?
99 % of control

Record: `O=C(O)c1ccc(C(=O)O)c(O)c1O`
89 % of control

Then this molecule: OC1OC(CF)C(O)C(O)C1O (centres undefined)
104 % of control

# repeat for NC(CSCc1cc(=O)[nH]c(=O)[nH]1)C(=O)O (centres undefined)
97 % of control

Please give the result for `CCCNC(=O)/C=C/C(=O)NCCC` too.
100 % of control

Moving on to COC(=O)CNC(=O)C1CSC(C)(C)N1C=O (centres undefined)
104 % of control

Now consider `CC(=N/NC(N)=S)/C(C)=N/NC(N)=S` and answer again.
98 % of control

# repeat for `Cc1csc(N)c1C(N)=O`
117 % of control

Quick one: `COc1ccc(/C=C/C(=O)c2ccc3cc(OC)c(OC)cc3c2)cc1OC`
91 % of control

Same thing, different molecule: `c1ccc2sc(SSN3CCOCC3)nc2c1`
101 % of control

Queued: CCC1c2ccc3cc(OC)ccc3c2CC1CC(=O)O (centres undefined)
92 % of control

====

System: L1210 leukemia ip in BDF1 mice, survival T/C
MEASUREMENT_DESCRIPTION: NCI In Vivo Anticancer Drug Screen. Data for tumor model L1210 Leukemia (intraperitoneal) in B6D2F1 (BDF1) mice
CONDITIONS: endpoint: mean survival time; dose: 100.0 mg/kg/injection; schedule: Q01DX001 (ip); vehicle: carboxymethylcellulose (CMC); higher = longer survival
Method: The antitumor activity of compounds was measured in mice bearing transplantable tumors. Survival or tumor size were measured and the results are expressed as the measurement made in the treated group (T) divided by the measurement made in the vehicle treated control group (C). The tumor model used in this assay is L1210 Leukemia (intraperitoneal) in B6D2F1 (BDF1) mice
Inconclusive results and toxic doses are left out.
ASSAY_METRIC: T/C

Quick check: T/C of Nc1ncc(CNc2ccc(C(=O)NC(CCC(=O)O)C(=O)O)cc2)c(N)n1 (centres undefined) ?
98 % of control

Please do the same for `CN1c2ccccc2Sc2ccccc21` as well.
96 % of control

# iterate: `O=C(O)CCC(=O)c1ccc(C2CCCC2)c2ccccc12`
91 % of control

# iterate: `O=C(O)c1ccc(/C=N/NC(=O)C(O)(c2ccccc2)c2ccccc2)cc1`
108 % of control

Try this compound too: `O=C(NCCCCCCNC(=O)NS(=O)(=O)c1ccccc1)NS(=O)(=O)c1ccccc1`
102 % of control

Try the compound `Cc1ccc(NC(=O)NCC(=O)O)cc1`
101 % of control

Now this one: `CC(=O)Nc1c(Cl)c(Cl)c(Cl)c2c1-c1ccc(Cl)cc1C2`
92 % of control

Now the compound `COc1ccc2nccc(C=O)c2c1`
102 % of control

Moving on to the next compound: CCC1C(=O)OC2OC(c3ccccc3)(c3ccccc3)NC21 (centres undefined)
88 % of control

`COc1ccc(CN2CCCN(Cc3ccc(OC)cc3OC)C2c2ccc(N(CCCl)CCCl)cc2C)c(OC)c1` , same question.
104 % of control

Record: `COc1ccc(OC(C)=O)c(C=O)c1`
100 % of control

What would you report for `Nc1c(Cl)ncn2c(=O)n(Cc3ccccc3)nc12` ?
96 % of control

Same for `CCCCC(=O)N/N=C\c1cccc2ccccc12`
86 % of control

Repeat with `CCCCCCCCCCCCCCCC[n+]1cccc(C(=O)NCO)c1`
93 % of control

====

Tested on: L1210 leukemia ip in BDF1 mice, survival T/C
MEASUREMENT_DESCRIPTION: NCI In Vivo Anticancer Drug Screen. Data for tumor model L1210 Leukemia (intraperitoneal) in B6D2F1 (BDF1) mice
CONDITIONS: endpoint: mean survival time; dose: 200.0 mg/kg/injection; schedule: Q04DX003 (ip); vehicle: saline; higher = longer survival
Inconclusive results and toxic doses are left out.
ASSAY_METRIC: T/C

Please provide the recorded T/C for CN(C)C(=O)C1C2CCC(C2)C1C(=O)N(C)C (centres undefined) , tested on L1210 leukemia ip in BDF1 mice, survival T/C.
96 % of control

Follow-up entry: `Cc1cc(C)c(/C=N/O)c(C)c1`
97 % of control

And then CCOC(=O)NC(=O)C1C2CC3OC(=O)C1C3C2 (centres undefined) , what is it?
102 % of control

What do we get for `N#CCCNC(=O)c1ccccc1` ?
94 % of control

Next record, please: `C[n+]1cccc(O)c1`
124 % of control

Next record, please: COC1CC=CC2=C1CCC1C2CC2C(=O)C1(C)CCC2O (centres undefined)
100 % of control

What about this compound? `Cc1csc(N)c1C(N)=O`
116 % of control

Follow-up entry: `CN(C)Cc1cc(Cl)cc(CN(C)C)c1O`
104 % of control

# repeat for CC(=O)OC1OC(COC(=O)c2ccc([N+](=O)[O-])cc2)C(NC(=O)C(F)(F)F)C1OC(C)=O (centres undefined)
96 % of control

What about `Nc1ccc2cc(S(=O)(=O)O)ccc2c1` ?
94 % of control

Subsequent entry: `CC(=O)SCCCCl`
101 % of control

Param item: O=C(O)C1CC=CCC1c1c2ccc(=O)cc-2oc2cc(O)ccc12 (centres undefined)
94 % of control

And then `CCOC(=O)C1CCCCC1` , what is it?
98 % of control

What do you have for `CCOC(=O)NC(=O)n1ncnc1N` ?
103 % of control

Same lookup for `C[N+](C)(C)CC(=O)[O-]` , please.
94 % of control

Follow-up entry: `CCN(CC)CCN(C)C(=O)C(c1ccccc1)c1ccccc1`
93 % of control

Please answer likewise for CCN(CC)CC(C)OC(=O)c1ccc(N)cc1 (centres undefined)
101 % of control

Then what about the compound `CNC(=O)CO` ?
103 % of control

What would you report for `CC(=O)n1cc(F)c(=O)[nH]c1=O` ?
113 % of control

What do we get for `O=C(O)c1ccccc1Oc1ccccc1C(=O)O` ?
100 % of control

One more compound: `O=C1NC(=O)C([N+](=O)[O-])C(=O)N1`
98 % of control

Repeat for the following compound: `NN1CCCCCC1`
97 % of control

Try this compound too: `Clc1ccc2c(Cl)ncnc2c1`
94 % of control

# iterate: COC1(OC)C2(Cl)C(Cl)=C(Cl)C1(Cl)C1C(=O)C=CC(=O)C12 (centres undefined)
93 % of control

Another compound to look at: `CC(C)(C)CN`
98 % of control

For `CCOP(=O)(OCC)c1cccc(N)c1` then?
87 % of control

What about this compound? NC1CCC(Cl)CC1 (centres undefined)
99 % of control

Do the same for `[CH3][Sb]1([Cl])[CH2]CC[CH2]1` please
108 % of control

Field entry: `O=C(Cn1ccc(O)cc1=O)N1CCC2(CC1)SSC1(CCN(C(=O)Cn3ccc(O)cc3=O)CC1)S2`
94 % of control
